// provenance: PubChem BioAssay AID2060898

System: 616215-338-R-J1-PDC complex spheroid viability
protocol.summary: Anticancer human tumor 616215-338-R-J1-PDC patient-derived colon adenocarcinoma cell line growth inhibition [RAS]
cond: curve of first compound; second compound 0.3 µM
Text: RAS pathway inhibitors in Combinations in Complex Spheroids A high-throughput screen of multi-cell type tumor spheroids was designed to identify active combinations of RAS pathway inhibitors and targeted small molecules. Complex spheroids include a stromal component modeled by human endothelial cells (HUVEC) and fibroblasts modeled by human mesenchymal stem cells (MSCs). […] Compounds. […] If the clinical Cmax for an agent had not been determined, the highest concentration tested was 10 microM. […]
pIC50: −log10 of the molar value.

{"compound": "O=C(c1ccc(F)c(F)c1Nc1ccc(I)cc1F)N1CC(O)([C@@H]2CCCCN2)C1 + CCn1c(-c2cccnc2C(C)OC)c2c3cc(ccc31)N1CCOC(CC(NC(=O)C(C(C)C)N(C)C(=O)C3(F)CCN(C(=O)C#CC(C)(C)N(C)C)CC3)C(=O)N3CCCC(N3)C(=O)OCC(C)(C)C2)C1", "test.system": "616215-338-R-J1-PDC complex spheroid viability", "result.comparator": "=", "pIC50": 7.83}
{"compound": "Cc1nc(N2CCC3(CC2)COC(C)C3N)c(CO)nc1Sc1ccnc(N)c1Cl (centres undefined) + CCn1c(-c2cccnc2C(C)OC)c2c3cc(ccc31)N1CCOC(CC(NC(=O)C(C(C)C)N(C)C(=O)C3(F)CCN(C(=O)C#CC(C)(C)N(C)C)CC3)C(=O)N3CCCC(N3)C(=O)OCC(C)(C)C2)C1", "test.system": "616215-338-R-J1-PDC complex spheroid viability", "result.comparator": "=", "pIC50": 5.12}
{"compound": "CC(=O)OC12COC1CC(O)C1(C)C(=O)C(O)C3=C(C)C(OC(=O)C(O)C(NC(=O)OC(C)(C)C)c4ccccc4)CC(O)(C(OC(=O)c4ccccc4)C21)C3(C)C (centres undefined) + CCn1c(-c2cc(N3CCN(C)CC3)cnc2C(C)OC)c2c3cc(ccc31)-c1csc(n1)CC(NC(=O)C1CC1C)C(=O)N1CCCC(N1)C(=O)OCC(C)(C)C2", "test.system": "616215-338-R-J1-PDC complex spheroid viability", "result.comparator": ">", "pIC50": 7.50}
{"compound": "CCc1c2c(nc3ccc(O)cc13)-c1cc3c(c(=O)n1C2)COC(=O)[C@]3(O)CC + CCn1c(-c2cccnc2C(C)OC)c2c3cc(ccc31)N1CCOC(CC(NC(=O)C(C(C)C)N(C)C(=O)C3(F)CCN(C(=O)C#CC(C)(C)N(C)C)CC3)C(=O)N3CCCC(N3)C(=O)OCC(C)(C)C2)C1", "test.system": "616215-338-R-J1-PDC complex spheroid viability", "result.comparator": "=", "pIC50": 8.04}

###

Tested on: 616215-338-R-J1-PDC complex spheroid viability
protocol.summary: Anticancer human tumor 616215-338-R-J1-PDC cell line growth inhibition [RAS];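 note: spheroids exposed to agents for seven days before viability readout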;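 for viability, T/C: 100% = DMSO vehicle control viability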
cond: second compound 0.03 µM; first compound 0.1 µM; stronger effect = lower value
Source text: RAS pathway inhibitors in Combinations in Complex Spheroids A high-throughput screen of multi-cell type tumor spheroids was designed to identify active combinations of RAS pathway inhibitors and targeted small molecules. Complex spheroids include a stromal component modeled by human endothelial cells (HUVEC) and fibroblasts modeled by human mesenchymal stem cells (MSCs). […] Compounds. […] If the clinical Cmax for an agent had not been determined, the highest concentration tested was 10 microM. […]
In plain terms, low viability, T/C, meaning strictly below 50%, gives TRUE, and everything else gives FALSE.

{"molecule": "CC(C)n1nc(-c2ccc3oc(N)nc3c2)c2c(N)ncnc21 + CCn1c(-c2cccnc2C(C)OC)c2c3cc(ccc31)N1CCOC(CC(NC(=O)C(C(C)C)N(C)C(=O)C3(F)CCN(C(=O)C#CC(C)(C)N(C)C)CC3)C(=O)N3CCCC(N3)C(=O)OCC(C)(C)C2)C1", "category": "FALSE"}
{"molecule": "C=CC(=O)N1CCN(c2nc(OCC3CCCN3C)nc3c(F)c(-c4nc(N)cc(C)c4C(F)(F)F)c(Cl)cc23)C(C)C1 (configuration not stated) + CCn1c(-c2cc(N3CCN(C)CC3)cnc2C(C)OC)c2c3cc(ccc31)-c1csc(n1)CC(NC(=O)C1CC1C)C(=O)N1CCCC(N1)C(=O)OCC(C)(C)C2", "category": "TRUE"}
{"molecule": "Nc1ccn(C2OC(CO)C(O)C2(F)F)c(=O)n1 (configuration not stated) + CCn1c(-c2cccnc2C(C)OC)c2c3cc(ccc31)N1CCOC(CC(NC(=O)C(C(C)C)N(C)C(=O)C3(F)CCN(C(=O)C#CC(C)(C)N(C)C)CC3)C(=O)N3CCCC(N3)C(=O)OCC(C)(C)C2)C1", "category": "TRUE"}
{"molecule": "CC(=O)OC12COC1CC(O)C1(C)C(=O)C(O)C3=C(C)C(OC(=O)C(O)C(NC(=O)OC(C)(C)C)c4ccccc4)CC(O)(C(OC(=O)c4ccccc4)C21)C3(C)C (configuration not stated) + CCn1c(-c2cccnc2C(C)OC)c2c3cc(ccc31)N1CCOC(CC(NC(=O)C(C(C)C)N(C)C(=O)C3(F)CCN(C(=O)C#CC(C)(C)N(C)C)CC3)C(=O)N3CCCC(N3)C(=O)OCC(C)(C)C2)C1", "category": "TRUE"}
{"molecule": "C[C@@H](NC(=O)c1ncnc(N)c1Cl)c1ncc(C(=O)Nc2cc(C(F)(F)F)c(Cl)cn2)s1 + CCn1c(-c2cccnc2C(C)OC)c2c3cc(ccc31)N1CCOC(CC(NC(=O)C(C(C)C)N(C)C(=O)C3(F)CCN(C(=O)C#CC(C)(C)N(C)C)CC3)C(=O)N3CCCC(N3)C(=O)OCC(C)(C)C2)C1", "category": "FALSE"}
{"molecule": "C=CC(=O)Nc1cc(Nc2nccc(-c3cn(C)c4ccccc34)n2)c(OC)cc1N(C)CCN(C)C + CCn1c(-c2cc(N3CCN(C)CC3)cnc2C(C)OC)c2c3cc(ccc31)-c1csc(n1)CC(NC(=O)C1CC1C)C(=O)N1CCCC(N1)C(=O)OCC(C)(C)C2", "category": "FALSE"}
{"molecule": "CC1(O)CCCC1n1c(=O)c(C(F)F)cc2cnc(NC3CCN(S(C)(=O)=O)CC3)nc21 (configuration not stated) + CCn1c(-c2cc(N3CCN(C)CC3)cnc2C(C)OC)c2c3cc(ccc31)-c1csc(n1)CC(NC(=O)C1CC1C)C(=O)N1CCCC(N1)C(=O)OCC(C)(C)C2", "category": "TRUE"}

###

The entries below are paired with their reported viability, T/C.
System: 616215-338-R-J1-PDC complex spheroid viability
protocol.summary: Anticancer human tumor 616215-338-R-J1-PDC cell line growth inhibition [RAS];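 note: spheroids exposed to agents for seven days before viability readout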;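 for viability, T/C: 100% = DMSO vehicle control viability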
cond: second compound 0.000949 µM; first compound 0.3 µM; stronger effect = lower value
Description: RAS pathway inhibitors in Combinations in Complex Spheroids A high-throughput screen of multi-cell type tumor spheroids was designed to identify active combinations of RAS pathway inhibitors and targeted small molecules. Complex spheroids include a stromal component modeled by human endothelial cells (HUVEC) and fibroblasts modeled by human mesenchymal stem cells (MSCs). […] Compounds. […] If the clinical Cmax for an agent had not been determined, the highest concentration tested was 10 microM. […]
measured.attribute: viability, T/C

{"compound": "CCc1c2c(nc3ccc(O)cc13)-c1cc3c(c(=O)n1C2)COC(=O)[C@]3(O)CC + CCn1c(-c2cccnc2C(C)OC)c2c3cc(ccc31)N1CCOC(CC(NC(=O)C(C(C)C)N(C)C(=O)C3(F)CCN(C(=O)C#CC(C)(C)N(C)C)CC3)C(=O)N3CCCC(N3)C(=O)OCC(C)(C)C2)C1", "reported.measurement": "18.1%"}
{"compound": "CCc1c2c(nc3ccc(O)cc13)-c1cc3c(c(=O)n1C2)COC(=O)[C@]3(O)CC + CCn1c(-c2cc(N3CCN(C)CC3)cnc2C(C)OC)c2c3cc(ccc31)-c1csc(n1)CC(NC(=O)C1CC1C)C(=O)N1CCCC(N1)C(=O)OCC(C)(C)C2", "reported.measurement": "13.4%"}
{"compound": "CC1(C)CCC(Nc2ncc(C(F)(F)F)c(-c3c[nH]c4c(P(C)(C)=O)c(C#N)ccc34)n2)CN1 (centres undefined) + CCn1c(-c2cccnc2C(C)OC)c2c3cc(ccc31)N1CCOC(CC(NC(=O)C(C(C)C)N(C)C(=O)C3(F)CCN(C(=O)C#CC(C)(C)N(C)C)CC3)C(=O)N3CCCC(N3)C(=O)OCC(C)(C)C2)C1", "reported.measurement": "31.9%"}
{"compound": "CC1(C)CCC(Nc2ncc(C(F)(F)F)c(-c3c[nH]c4c(P(C)(C)=O)c(C#N)ccc34)n2)CN1 (centres undefined) + CCn1c(-c2cc(N3CCN(C)CC3)cnc2C(C)OC)c2c3cc(ccc31)-c1csc(n1)CC(NC(=O)C1CC1C)C(=O)N1CCCC(N1)C(=O)OCC(C)(C)C2", "reported.measurement": "39.1%"}
